meta.source: patent US20140378451A1

# assayedSystem: hCB2R (Homo sapiens)
# Construct: unnamed tag of the plasmid
# assayExplanation: cAMP assay on hCB2R clone 3D8.3 (transfected CHO-K1 cells)
# experimentalParameters: cAMP, hCNR2 CHO-K1 3D8.3 clone; read-out: Assay 1 IC50
metric: IC50 (nM)

N#Cc1ccccc1CSc1nnc2c3ccccc3n(Cc3ccccc3[N+](=O)[O-])c2n1    355

(I) N#Cc1ccccc1CSc1nnc2c3ccccc3n(C(=O)c3ccno3)c2n1
(II) CCCCSc1nnc2c(n1)[nH]c1ccccc12
(III) C[C@@H]1C[C@H]1C(=O)n1c2ccccc2c2nnc(SCc3ccccc3C#N)nc21 (relative stereo)
Reorder the items by IC50, least to greatest. Give the order by naming the labels one after another as requested.
I, II, III

====

# assayedSystem: hCB2R (Homo sapiens, UniProt P34972)
# Construct: unnamed tag of the plasmid
# Sequence (P34972 whole entry): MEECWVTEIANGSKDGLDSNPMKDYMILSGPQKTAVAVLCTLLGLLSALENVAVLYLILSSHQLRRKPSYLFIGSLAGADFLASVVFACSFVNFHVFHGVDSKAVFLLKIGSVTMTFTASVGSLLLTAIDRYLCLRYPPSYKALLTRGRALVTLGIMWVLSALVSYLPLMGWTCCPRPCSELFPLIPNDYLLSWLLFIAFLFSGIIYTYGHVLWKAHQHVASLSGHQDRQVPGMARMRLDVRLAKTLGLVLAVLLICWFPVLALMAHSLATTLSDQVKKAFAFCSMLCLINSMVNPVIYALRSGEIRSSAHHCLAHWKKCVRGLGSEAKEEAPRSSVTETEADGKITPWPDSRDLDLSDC
# assayExplanation: cAMP assay on hCB2R clone 3D8.3 (transfected CHO-K1 cells)
# experimentalParameters: cAMP, hCNR2 CHO-K1 3D8.3 clone; read-out: Assay 1 IC50
pIC50: −log10 of the molar value.
metric: pIC50

These solved cases illustrate the format of a correct answer.
COC(=O)CCCC(=O)n1c2ccccc2c2nnc(SCc3ccccc3C#N)nc21    7.35
c1ccc(-c2nn[nH]n2)c(CSc2nnc3c(n2)[nH]c2ccccc23)c1    7.96
N#Cc1ccccc1CSc1nnc2c3ccccc3n(C(=O)c3ccc(OC(F)(F)F)cc3)c2n1    6.95
N#Cc1ccccc1CSc1nnc2c3ccccc3n(C(=O)C3CCCCC3)c2n1    7.92
N#Cc1ccccc1CSc1nnc2c3ccccc3n(C(=O)c3ccc(F)cc3)c2n1    7.49

(1) O=C(c1ccccc1)n1c2ccccc2c2nnc(SCc3ccccc3[N+](=O)[O-])nc21
(2) O=C(O)c1ccccc1CSc1nnc2c(n1)[nH]c1ccccc12
Could you please tell me which of these two has the higher pIC50: 1 or 2 ? Answer with the label corresponding to your selection.
1

(a) O=[N+]([O-])c1ccc(CSc2nnc3c(n2)[nH]c2ccccc23)cc1
(b) O=[N+]([O-])c1ccccc1CSc1nnc2c(n1)[nH]c1cccc(Br)c12
(c) N#Cc1ccccc1CSc1nnc2c3ccccc3n(C(=O)c3cccc(C(F)(F)F)c3)c2n1
Order the items by recorded pIC50; the first position goes to the largest value. # respond with the labels, arranged in the requested order
c, b, a
(c: 7.24, b: 6.55, a: 6.21)

(I) N#Cc1ccccc1CSc1nnc2c3ccccc3n(CC(=O)C3CC3)c2n1
(II) N#Cc1ccccc1CSc1nnc2c3ccccc3n(CC3CCCCC3)c2n1
Compare reported pIC50 values for I and II . Which is lower? Give the chosen item's label as your response.
I

====

# assayedSystem: hCNR2 (CB2R) (Homo sapiens, UniProt P34972)
# Construct: host or cells: CHO-K1 (purchased recombinant cell line)
# Sequence (P34972 whole entry): as above
# assayExplanation: DiscoveRx cAMP Hunter Express GPCR assay (hCNR2 CHO-K1 cells)
# Assay type: cell-based
# experimentalParameters: cAMP Hunter eXpress, hCNR2 CHO-K1 cells; read-out: Assay 2 IC50
metric: IC50 (nM)

// solved cases for IC50 follow
N#Cc1ccccc1CSc1nnc2c3ccccc3n(C(=O)c3ccccc3)c2n1 [Example 25]    113
O=[N+]([O-])c1ccccc1CSc1nnc2c3ccccc3n(Cc3ccc(Cl)cc3)c2n1 [Example 6]    109
O=C(c1ccccc1)n1c2ccccc2c2nnc(SCc3ccccc3[N+](=O)[O-])nc21 [Example 7]    75

(a) N#Cc1ccccc1CSc1nnc2c3ccccc3n(C(=O)c3ccno3)c2n1 [Example 24]
(b) Cc1ccccc1CSc1nnc2c(n1)[nH]c1ccccc12 [Example 15]
Hey, between a and b which has a smaller measured IC50? Output the label that corresponds to your choice.
a

====

# assayedSystem: hCB2R (Homo sapiens)
# Construct: unnamed tag of the plasmid
# assayExplanation: cAMP assay on hCB2R clone 3D8.3 (transfected CHO-K1 cells)
# experimentalParameters: cAMP, hCNR2 CHO-K1 3D8.3 clone; read-out: Assay 1 IC50
pIC50: −log10 of the molar value.
metric: pIC50

// below: answered compounds
COC(=O)CCC(=O)n1c2ccccc2c2nnc(SCc3ccccc3C#N)nc21 [Example 26]    7.37
O=[N+]([O-])c1ccc(CSc2nnc3c(n2)[nH]c2ccccc23)c([N+](=O)[O-])c1 [Example 11]    5.41

(1) O=[N+]([O-])c1ccccc1CSc1nnc2c3ccccc3n(Cc3ccc(Cl)cc3)c2n1 [Example 6]
(2) N#Cc1ccccc1CSc1nnc2c3ccccc3n(CC3CC3)c2n1 [Example 41]
Pick one: 1 or 2 . Which has the bigger pIC50 number? Identify your selection by its label.
2
(2: 6.84, 1: 6.20)
